Cited source for all entries: ChEMBL document CHEMBL1144964

In this section, each of the molecules is paired with its reported Ki.
Molecular target: Mandelate racemase (Pseudomonas putida, UniProt P11444)
Sequence (P11444 whole entry): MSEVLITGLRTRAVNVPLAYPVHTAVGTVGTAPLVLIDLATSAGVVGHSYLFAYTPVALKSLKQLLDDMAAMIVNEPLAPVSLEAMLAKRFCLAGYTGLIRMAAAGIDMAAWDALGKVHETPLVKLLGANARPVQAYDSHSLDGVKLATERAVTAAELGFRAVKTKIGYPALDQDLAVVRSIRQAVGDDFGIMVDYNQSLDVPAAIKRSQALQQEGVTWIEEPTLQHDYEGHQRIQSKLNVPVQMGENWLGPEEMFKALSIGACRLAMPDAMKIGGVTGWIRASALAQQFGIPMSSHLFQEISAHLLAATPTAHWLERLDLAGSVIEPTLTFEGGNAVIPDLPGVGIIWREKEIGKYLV
Experiment: Inhibition constant against Mandelate racemase from Pseudomonas putida at pH 7.5
State just the number; it will be interpreted in µM.

In: Any idea what Ki was measured for O=P(O)(O)[C@H](O)c1ccccc1 ?
Out: 1.1

In: Any idea what Ki was measured for O=C(c1ccccc1)P(=O)(O)O [BENZOYLPHOSPHONATE] ?
Out: 300

In: Any idea what Ki was measured for O=P(O)(O)C(F)c1ccccc1 (racemic) ?
Out: 810

In: Any idea what Ki was measured for O=P(O)(O)[C@H](F)c1ccccc1 ?
Out: 530

In: Any idea what Ki was measured for O=P(O)(O)[C@@H](F)c1ccccc1 ?
Out: 1110

In: Any idea what Ki was measured for O=P(O)(O)C(O)c1ccccc1 (racemic) [ALPHA HYDROXY BENZYLPHOSPHONATE] ?
Out: 4.7

In: Any idea what Ki was measured for O=P(O)(O)C(F)(F)c1ccccc1 ?
Out: 12000

In: Any idea what Ki was measured for O=P(O)(O)[C@@H](O)c1ccccc1 ?
Out: 34

# input for lookup
In: Any idea what Ki was measured for O=P(O)(O)Cc1ccccc1 ?
Out: 3600
